Below, each entry is listed with its recorded inhibition.
# MEASURED TARGET: ERBB2 (human)
# ASSAY INFO: Caliper, Mobility shift assay off-chip
# CONDITION NOTES: compound 0.02 µM
MEASUREMENT TYPE: inhibition (%)

| CHEM SMILES | MEASUREMENT TYPE | RECORDED VALUE |
| --- | --- | --- |
| COc1cc2c(Oc3ccc4[nH]c(C)cc4c3F)ncnc2cc1OCCCN1CCCC1 | inhibition | 3.9 |
| CNC(=O)c1ccccc1Sc1ccc2c(/C=C/c3ccccn3)n[nH]c2c1 | inhibition | -1.4 |
| Cc1ccc(Nc2nccc(N(C)c3ccc4c(C)n(C)nc4c3)n2)cc1S(N)(=O)=O | inhibition | 0 |
| CNC(=O)c1cc(Oc2ccc(NC(=O)Nc3ccc(Cl)c(C(F)(F)F)c3)cc2)ccn1 | inhibition | 0.5 |
